# measured_on: Human SARS Coronavirus Spike S1 Subunit Protein (His Tag) (Sino 40150-V08B1) (Human SARS Coronavirus, UniProt P59594 14-667)
# assay_method_text: Luminex, supernatant
Field: MFI. Provide a value for each of the binders that follow.
Give bare numbers, in MFI.

mAb10982 (antibody, V domains shown) VH: EVQLVESGGGLVQPGGSLRLSCAASGLTVSSNYMSWVRQAPGKGLEWVSVIYSGGTTYYADSVKGRFTISRHNSKNTLSLQMNSLRAEDTAVYYCARGEGANYYGMDVWGQGTTVTVSS VL: QSVLTQPPSVSGAPGQRVTISCTGSSSNIGTGYDVHWYQQLPGTAPKLLIYGNSNRPSGVPDRFSGSKSGTSASLAITGLQAEDEADYYCQSYDSSLSGYVVFGGGTKLTVLG | 24
mAb10914 (antibody, V domains shown) VH: EVQLVESGGGLVQPGGSLRLSCAASGLIVSRNYMIWVRQAPGKGLEWVSVIYSGGSTFYADSVKGRFTISRHNSKNTLYLQMNSLRAEDTAVYYCARDLGTGGMDVWGQGTTVTVSS VL: DIQLTQSPSFLSASVGDRVTITCWASQGISSYLAWYQQKPGKAPKLLIYAASTLQSGVPSRFSGSGSGTEFTLTISSLQPEDFATYYCQQLNSYPLTFGGGTKVEIKR | 22

Switching to the query record.
Any idea what its MFI is? The binder is mAb10938 (antibody, V domains shown) VH: EVQLVESGGGLVQPGGSLRLSCAVSGFTVSSNYMSWVRQAPGKGLEWVSLIYSGGSTFYADSVKGRFTISRHNSKNTLYLQMNSLRAEDTAVYYCAREGGYSYDYNYWGQGTLVTVSS VL: DIQMTQSPSSLSASVGDRVTITCQASQDIRNYLNWYQQKPGKAPKLLIYDASNLETGVPSRFSGIGSGTDFTFTISSLQPEDIATYYCQQYDNLPITFGQGTRLEIKR
19
